assay: Staphylococcus aureus RN4220 growth blockers – two temperatures, LtaS inhibitor project, primary screen (AID 720641); details: S. aureus RN4220 growth, OD600, 20 h, 42 °C; measured here: growth at 30 °C; stronger effect = lower value
In all, about 170,000 compounds went through this assay and about 900 (0.53%) were called active. This is one part of a sample in which actives are shown more often than they occur.
With a cut-off of 80%, any relative growth strictly below it is called Satisfied; any relative growth meeting it or above is called Not satisfied.

Please review the entries below; each comes with its answer.
>>> classification("Cc1nc2ccccc2nc(C)c1=NOCC(=O)Nc1ccc(S(=O)(=O)N2CCOCC2)cc1")
"Not satisfied"
>>> classification("O=C(Sc1nc(-c2ccccc2)c(-c2ccccc2)[nH]1)c1cccs1")
"Satisfied"
>>> classification("CCOC(=O)N1CCC(N2Cc3cccc(C(=O)NC4CCN(Cc5ccccc5)CC4)c3C2=O)CC1")
"Not satisfied"
>>> classification("CCn1nc(C(=O)OCCCCN2C(=O)c3ccccc3C2=O)c2ccccc2c1=O")
"Not satisfied"
>>> classification("Cc1oc2c(c1C(=O)NC(C)c1ccccc1)C(=O)c1ccccc1C2=O (stereo not drawn)")
"Satisfied"

Identify whether the molecule `COC(=O)c1scc2c(N3CCCCC3)cc(C(F)(F)F)nc12` records relative growth below 80%. Not satisfied

Identify whether the molecule `COC(=O)/C(C#N)=C(\NCc1ccc(Cl)cc1Cl)SC` records relative growth below 80%. Not satisfied
